Assay: Rat pharmacokinetic (PK) assay
Format: in vivo, Sprague-Dawley rat
Conditions: male, Sprague-Dawley, plasma; Rat iv, dose 5 mg/kg (table)
Experimental: Test compound was dissolved in 10% DMSO, 40% PEG-400, and 50% water for intravenous (i.v.) and oral (p.o.) administration to rat. […] Three male animals received single p.o. doses by gavage tube (5 mg/kg). […] After centrifugation, plasma samples were prepared via protein precipitation and detected through LC-MS/MS. The pharmacokinetics parameters were calculated using Phoenix software V 8.3.4.
RESULT TYPE: MRT (h)
Give just the number in h; leave the unit off.

Quick one: MRT for O=C(O)c1ccc(C2(NC(=O)c3c(Cl)sc4ccn(Cc5ccc(C(F)(F)F)cc5)c34)CC2)cc1 ?
5.93

Where do these numbers come from? They come from patent US20260070918A1.
